All figures here come from PubChem BioAssay (NCI).

# Tested on: HOP-62 NSCLC
# protocol_notes: NCI-60 one-dose screen, 48 h (100 = growth as untreated, 0 = no growth, -100 = all killed)
# run_parameters: 10 µM unless noted
About 83,000 compounds went through this panel and 20% of them were active in at least one assay; those are over-represented in the sample as a whole.
For each entry below, report its growth value.
Report only the number, with the unit % understood.

// sample `CC1(C)N=C(N)N=C(N)N1c1ccc(CCCCc2ccc(Cl)cc2S(=O)(=O)F)c(Cl)c1` , its growth was 33.4

// sample O=CN1N=C(c2ccc3c(c2)OCO3)CC1c1sc(N(CCCl)CCCl)nc1Cl (configuration not stated) , its growth was 93

// sample `O=C(NCCNC(=O)c1ccc([As](O)O)cc1)c1ccc([As](O)O)cc1` , its growth was 105

// sample CCCCCCCCCCCCOc1ccc(C(=O)Oc2ccc(CSP3(=O)OCC4OC(n5cnc6c(N)ncnc65)C(F)C4OP(=O)(O)OCC4OC(n5ccc(=O)[nH]c5=O)C(F)C4O3)cc2)cc1 (configuration not stated) , its growth was 115

// sample CC12CC[C@H](O)C=C1/C(=N/O)CC1C2CCC2(C)C1CC[C@@H]2O (some centres not stated) , its growth was 96.4

// sample CC(=O)N1N=C(c2ccccc2)CC1c1sc(N(CCCl)CCCl)nc1Cl (configuration not stated) , its growth was 90

// sample `N#[N+]c1nc2nc(N)[nH]c(=O)c2[nH]1` , its growth was 92.5

// sample `CC(C)CCC[C@@H](C)[C@H]1CC[C@H]2[C@@H]3CC=C4C[C@@H](OC(=O)Cc5ccc(N(CCCl)CCCl)cc5)CC[C@]4(C)[C@H]3CC[C@]12C` , its growth was 105

// sample `Cc1cc(N(CCCl)CCCl)ccc1C=Nc1ccc2ccccc2c1` , its growth was 42.7

// sample O=C(c1cccs1)C1NO[N+]([O-])=C1c1cccs1 (configuration not stated) , its growth was 89.6

// sample `CC(=O)[O][Hg][c]1nc2c(c(=O)n(C)c(=O)n2C)n1C` , its growth was 120

// sample CC(C)(C)NCC(O)c1ccccc1Cl (configuration not stated) , its growth was 29.3

// sample OC1(c2ccccc2F)c2ccccc2C2=NCCN21 (configuration not stated) , its growth was 84.9

// sample `CC(/C=N/N=C(N)N)=N\N=C(N)N` , its growth was 64.2

// sample `N#Cc1ncc(/N=C/c2ccc(N(CCCl)CCCl)cc2)s1` , its growth was 96.1

// sample ClCCN(CCCl)c1nc(Cl)c(C2CC(c3ccccc3)=NN2c2ccccc2)s1 (configuration not stated) , its growth was 79.5

// sample `c1ccc(-c2ccc3ccccc3[o+]2)cc1` , its growth was 96.2

// sample `c1ccc2nc(OCCN3CC3)ccc2c1` , its growth was 76.8

// sample O=C(O)C1[O][Sb][O]C1C(=O)O (configuration not stated) , its growth was 109

// sample `COc1ccc(C(c2ccc(OC)cc2)C(Cl)(Cl)Cl)cc1` , its growth was 83.1

// sample `CCN(CC)CCOc1c(C(C)C)cccc1C(C)C` , its growth was 96.7

// sample CN1C(=O)NC(=O)C(N=Nc2ccc(Cl)cc2)C1=O (configuration not stated) , its growth was 123

###

# Test system: MCF7 breast
# protocol_notes: NCI-60 one-dose screen, 48 h
# run_parameters: 10 µM unless noted
Compounds without any hit were thinned out: in the full panel of roughly 83,000, 20% have a hit. Calls of active or inactive are those of the source. Rule for the calls: active = growth percent below 10; inactive = the rest.
Answer with one of the outcomes given here: active, inactive

[in] // outcome(item) with item = `CNC(=O)Oc1ccccc1-c1ccccc1`
[out] inactive

[in] // outcome(item) with item = C[C@]12CCC(=O)CC1CC[C@@H]1C2CC[C@@]2(C)C1CC[C@@H]2OC(=O)CC[Se][Se]CCC(=O)O[C@H]1CCC2[C@@H]3CCC4CC(=O)CC[C@]4(C)C3CC[C@@]21C (some centres undefined)
[out] inactive

[in] // outcome(item) with item = COC1=CC(=O)OC(CCc2ccc3c(c2)OCO3)C1 (centres undefined)
[out] inactive

[in] // outcome(item) with item = `CC1(C)N=C(N)N=C(N)N1c1ccc(OCCCCOc2ccc(S(=O)(=O)F)cc2)c(Cl)c1`
[out] active

[in] // outcome(item) with item = `C[As](=O)(O)c1ccc(C(=O)O)cc1`
[out] inactive

[in] // outcome(item) with item = `CC(C)CCC[C@@H](C)[C@H]1CC[C@H]2[C@@H]3CC=C4C[C@@H](OC(=O)Cc5ccc(N(CCCl)CCCl)cc5)CC[C@]4(C)[C@H]3CC[C@]12C`
[out] inactive

[in] // outcome(item) with item = O=C(CC1(O)C(=O)Nc2ccc(F)cc21)c1ccc(C(=O)NCC2CCC3(CC2)OOC2(CCCCC2)OO3)cc1 (centres undefined)
[out] inactive

[in] // outcome(item) with item = O=C(O)CN1C(=O)C(Cc2ccccc2)N=C(c2cccc(O)c2)c2ccccc21 (centres undefined)
[out] inactive

[in] // outcome(item) with item = c1ccc(CCN2CCCCC2Cc2ccccc2)cc1 (centres undefined)
[out] inactive
